Tested on: RXF 393 renal
testName: NCI-60 one-dose screen, 48 h
recordedConditions: 10 µM unless noted
The panel holds about 83,000 compounds, 20% with a hit somewhere; the sample as a whole holds those more often. Active and inactive are the calls of the source. How the source made its calls: active means growth percent below 10; inactive means the rest.
Outcome (select one): T (active), F (inactive)

Take a look at these entries with their results.
# compound, class
records = [
    ("CN(C)C(=O)c1ccccc1-n1cnc2ccccc2c1=O", "F"),
    ("CNC(=O)c1c(NC(=O)c2ccc(F)cc2F)sc2c1CCC(=O)C2", "T"),
    ("COc1ccc(-c2oc3cc(O)cc(O)c3c(=O)c2OC)cc1O", "T"),
    ("COc1cc2cc(Oc3ccc(NC(=O)Nc4cccc(C(F)(F)F)c4)cc3)c(C)nc2cc1OCCN(C)C", "F"),
]

Ask: Please share the test call associated with "O=c1[nH]c2cc(Cl)ccc2n1C1CCN(c2ccc3nnc(Cl)n3n2)CC1" .
Result: F

Ask: Please share the test call associated with "CCOC(=O)c1c(NCC(=O)Nc2cccc([N+](=O)[O-])c2)sc2c1CCCC2" .
Result: T

Ask: Please share the test call associated with "COc1ccc(Cn2cc3c(c2-c2ccccc2)CCCc2cnoc2-3)cc1" .
Result: F

----------
Tested on: LOX IMVI melanoma
testName: NCI-60 one-dose screen, 48 h (100 = growth as untreated, 0 = no growth, -100 = all killed)
recordedConditions: 10 µM unless noted
This is part of a sample that, as a whole, favours compounds with a hit. Of some 83,000 tested, about 20% had one in any assay.
Cut-off 6% on growth, inclusive. At or above means fulfilled; below means not fulfilled.

# compoundSmiles, class
records = [
    ("COc1ccc(/C(C)=C(\\c2ccc(Cl)cc2)c2ccc(OCCN)cc2)cc1", "not fulfilled"),
    ("Cc1ccc(Cc2cnc(NC(=O)/C(C#N)=C/c3ccc(-c4ccc(Cl)cc4)o3)s2)cc1", "fulfilled"),
    ("Nc1nc(-c2cccc([N+](=O)[O-])c2)c(N=Nc2cccc(Cl)c2)s1", "fulfilled"),
]

Now for another entry.
Ask: Reported growth at or above 6%? "Fc1ccccc1/C=C(/C1=NCCN1)n1cnc2ccccc21"
Result: fulfilled

----------
System: 786-0 renal
testName: NCI-60 one-dose screen, 48 h (100 = growth as untreated, 0 = no growth, -100 = all killed)
recordedConditions: 10 µM unless noted
This is part of a sample that, as a whole, favours compounds with a hit. Of some 83,000 tested, about 20% had one in any assay.
Cut-off 90% on growth: below means label 1, at or above means label 0.

# compound, measurementTarget, class
data = [
    ("O=C(CN1C(=O)S/C(=C\\c2ccccc2)C1=O)Nc1ccc(C(=O)/C=C/c2cc3ccccc3nc2Cl)cc1", "786-0 renal", "label 0"),
    ("CC1(C)CC[C@]2(C(=O)O)CC[C@]3(C)C(=CCC4[C@@]5(C)C[C@@H](O)[C@@H]6OC(c7ccccc7O)OC[C@@]6(C)C5CC[C@]43C)C2C1 (stereo partly drawn)", "786-0 renal", "label 1"),
    ("CCN(CC)c1ccc2cc(C(=O)NCCOCCOCCOCCn3cc(CCC(=O)Nc4ccc(C(=O)c5ccc(NC(=O)OC(C)(C)C)cc5)cc4)nn3)c(=O)oc2c1", "786-0 renal", "label 1"),
    ("CC(C)=CCc1c2c(c(O)c3c1O[C@]14C(=C[C@@H]5C[C@H]1C(C)(C)O[C@@]4(C/C=C(/C)C(=O)O)C5=O)C3=O)CC(O)C(C)(C)O2 (stereo partly drawn)", "786-0 renal", "label 1"),
    ("N#C/C(=C\\c1ccc(-c2ccc(F)cc2)o1)C(=O)Nc1ncc(Cc2ccc(Cl)cc2Cl)s1", "786-0 renal", "label 1"),
]

Now for another entry.
Ask: Report whether reported growth is lower than 90% (strictly) for "O=C(NNc1nc2cc(F)c(F)cc2n2cccc12)c1cccnn1"
Result: label 1

----------
Test system: CCRF-CEM leukemia
testName: NCI-60 one-dose screen, 48 h
recordedConditions: 10 µM unless noted
The panel holds about 83,000 compounds, 20% with a hit somewhere; the sample as a whole holds those more often. The source made the active and inactive calls. Rule for the calls: active = growth percent below 10; inactive = the rest.
Outcome (select one): active, inactive

Take a look at these entries with their results.
# compoundSmiles, class
records = [
    ("CNC(=O)c1cc(Oc2ccc3nc(NC(=O)c4cccc(C(F)(F)F)c4)sc3c2)ccn1", "inactive"),
    ("COc1ccc(-c2nc3cc(Cl)c(Cl)cc3n2CC(=O)N=Nc2c(O)[nH]c3ccccc23)cc1", "inactive"),
    ("C#C[C@]1(O)CC[C@H]2[C@@H]3CC=C4c5sc(-c6ccc(OC)cc6)nc5CC[C@]4(C)[C@H]3CC[C@@]21C", "inactive"),
]

Now for another entry.
Ask: Please share the test call associated with "Cc1nn(-c2ccccc2)cc1/C=N/Nc1nc(Nc2ccccc2)nc(Nc2ccc(S(N)(=O)=O)cc2)n1" .
Result: active

----------
Test system: RPMI-8226 leukemia
testName: NCI-60 one-dose screen, 48 h (100 = growth as untreated, 0 = no growth, -100 = all killed)
recordedConditions: 10 µM unless noted
The panel holds about 83,000 compounds, 20% with a hit somewhere; the sample as a whole holds those more often.
Cut-off -30% on growth, inclusive. At or above means 1; below means 0.

Take a look at these entries with their results.
# compound, class
rows = [
    ("C#C[C@]1(O)CC[C@H]2[C@@H]3CC=C4c5sc(Nc6cccc(Cl)n6)nc5CC[C@]4(C)[C@H]3CC[C@@]21C", 1),
    ("CC1OC(O[C@@H]2[C@H](O)C(CO)OC(O[C@H]3COC(O[C@H]4CC[C@]5(C)[C@H]6CC[C@]78OC[C@@]9(CCC(C)(C)C[C@H]97)[C@H](O)C[C@@]8(C)[C@]6(C)CC[C@H]5C4(C)C)[C@@H](OC4OC(CO)[C@@H](O)[C@@H](O)[C@@H]4O)[C@@H]3O)[C@H]2OC2OC[C@@H](O)[C@@H](O)[C@@H]2O)[C@@H](O)[C@@H](O)[C@H]1O (stereo partly specified)", 0),
    ("COc1ccc2c(C3=C(c4cn(C)c5ccccc45)C(=O)NC3=O)coc2c1", 1),
    ("CCc1ccc(NC(=O)N[C@@H](Cc2cccc(C)c2)C(=O)N[C@@H]2C(=O)N3CCC[C@H]3C(=O)N3CCCC[C@H]3C(=O)N[C@@H](CO)C(=O)N3C[C@H](C)C[C@H]3C(=O)O[C@H]2C)c(F)c1", 1),
    ("CC1=CC(=O)CC(C)(C)[C@@]1(O)/C=C/C(C)=C\\C(=O)O", 1),
]

Ask: Reported growth at or above -30%? "CCOC(=O)c1c(NCC(=O)Nc2cccc([N+](=O)[O-])c2)sc2c1CCCC2"
Result: 1

----------
Test system: UO-31 renal
testName: NCI-60 one-dose screen, 48 h
recordedConditions: 10 µM unless noted
This is part of a sample that, as a whole, favours compounds with a hit. Of some 83,000 tested, about 20% had one in any assay. The source made the active and inactive calls. How the source made its calls: active means growth percent below 10; inactive means the rest.
Outcome (select one): T = active, F = inactive

Take a look at these entries with their results.
# molecule, class
measured = [
    ("CS(=O)(=O)c1ccc(-c2nn(-c3ccccc3)cc2/C=C/C(=O)c2ccc(Br)cc2)cc1", "F"),
    ("CC1(C)CC[C@]2(C(=O)N3CCCN(CC#N)CC3)CC[C@]3(C)C(=CC[C@@H]4[C@@]5(C)CC[C@H](O)C(C)(C)[C@@H]5CC[C@]43C)[C@H]2C1", "F"),
    ("Nc1cc(F)ccc1NC(=O)c1ccc(NC(=O)C/C=C/c2cccnc2)cn1", "T"),
    ("C#C[C@]1(O)CC[C@H]2[C@@H]3CC=C4c5sc(Nc6cc(Cl)ccn6)nc5CC[C@]4(C)[C@H]3CC[C@@]21C", "T"),
]

Ask: Please share the test call associated with CCC(C)[C@H]1OC(=O)[C@H](C(C)C)N(C)C(=O)[C@@H](C(C)C)OC(=O)[C@H](C(C)C)N(C)C(=O)[C@@H](C(C)CC)OC(=O)[C@H](C(C)C)N(C)C1=O (stereo partly drawn) .
Result: T

Ask: Please share the test call associated with "Cc1occc1-c1nc2s/c(=C\c3cn(-c4ccccc4)nc3-c3ccccc3)c(=O)n2n1" .
Result: F

Ask: Please share the test call associated with "COc1ccc(C(=O)c2c(N)c(C#N)cn2-c2cccc(OC)c2)cc1" .
Result: F

Ask: Please share the test call associated with "COc1ccc(-c2nc(SCCC(C)C)nc(N/N=C\c3ccc(O)cc3)c2C#N)cc1" .
Result: F

----------
Test system: UO-31 renal
testName: NCI-60 one-dose screen, 48 h (100 = growth as untreated, 0 = no growth, -100 = all killed)
recordedConditions: 10 µM unless noted
About 83,000 compounds went through this panel and 20% of them were active in at least one assay; those are over-represented in the sample as a whole.
growth values, listed per item
Field format: number, assumed %, no unit text.

Observe how each entry below is paired with its result.
# compound, observed
measured = [
    ("COc1ccc(Cn2cc3c(c2-c2cc(OC)c(OC)c(OC)c2)CCCc2cnoc2-3)cc1", 30.7),
    ("COc1ccc(C2CC(c3ccc(Nc4nc(NCCO)nc(Nc5ccc(Cl)cc5)n4)cc3)=Nc3c(N)nc(N)nc3N2)cc1 (stereo not given)", 56.2),
    ("COc1ccc2c(ccn2C(=O)N2c3ccccc3Sc3ccccc32)c1", 55),
]

Ask: Specify growth for "CCOC(=O)c1c(Nc2ccccc2)nn2c(-c3ccc(Br)cc3)ccnc12" and stop.
Result: 65.1

Ask: Specify growth for C#CCOc1ccc(C(Nc2ccc(OC)cc2)c2nnnn2C2CCCCC2)cc1 (stereo not given) and stop.
Result: 80.4
